- subjectOfTest: SSTR3 (Homo sapiens, UniProt P32745)
- Construct: The human full-length SSTRs and mutants were cloned into the pcDNA3.1+ vector; expressed in transfected cells; host or cells: HEK293 (ATCC, CRL-1573)
- Sequence (P32745 whole entry): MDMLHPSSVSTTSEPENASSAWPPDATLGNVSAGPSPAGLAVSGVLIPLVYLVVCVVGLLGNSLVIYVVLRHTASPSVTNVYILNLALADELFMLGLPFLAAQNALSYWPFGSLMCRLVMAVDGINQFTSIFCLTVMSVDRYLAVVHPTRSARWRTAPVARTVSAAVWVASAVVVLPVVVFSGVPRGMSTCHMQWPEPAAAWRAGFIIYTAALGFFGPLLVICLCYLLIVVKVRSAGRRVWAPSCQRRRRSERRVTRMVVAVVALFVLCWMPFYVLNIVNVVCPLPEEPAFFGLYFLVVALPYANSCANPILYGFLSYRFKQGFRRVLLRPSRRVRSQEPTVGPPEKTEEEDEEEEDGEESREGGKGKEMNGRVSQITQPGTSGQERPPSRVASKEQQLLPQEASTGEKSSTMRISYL
- protocolNotes: SSTRs Gi-mediated cAMP inhibition, GloSensor, HEK293 (SSTR3 wild-type)
- Assay type: cell-based
reportedMetric: pEC50
Field pEC50 (float): negative decimal logarithm of the concentration in molar.

### Prompt Recorded pEC50 for N#Cc1cccc(-c2ccc3ncc(-c4cc(F)cc(F)c4)c(N4CCC(N)CC4)c3c2)c1O [paltusotine] , please?
### Response 8.59

---

- subjectOfTest: SSTR2 (Homo sapiens, UniProt P30874)
- protocolNotes: NanoBiT β-arrestin 1 recruitment assay, HEK293 (SSTR2 wild-type)
- Assay type: cell-based
- Parameters: Human full-length SSTR wild-type and mutant vectors were C-terminally fused; expressed in transfected cells; host or cells: HEK293
- condition: Best-fit EC50, SSTR2-WT-1 control of I195A-1
- Sequence (P30874 whole entry): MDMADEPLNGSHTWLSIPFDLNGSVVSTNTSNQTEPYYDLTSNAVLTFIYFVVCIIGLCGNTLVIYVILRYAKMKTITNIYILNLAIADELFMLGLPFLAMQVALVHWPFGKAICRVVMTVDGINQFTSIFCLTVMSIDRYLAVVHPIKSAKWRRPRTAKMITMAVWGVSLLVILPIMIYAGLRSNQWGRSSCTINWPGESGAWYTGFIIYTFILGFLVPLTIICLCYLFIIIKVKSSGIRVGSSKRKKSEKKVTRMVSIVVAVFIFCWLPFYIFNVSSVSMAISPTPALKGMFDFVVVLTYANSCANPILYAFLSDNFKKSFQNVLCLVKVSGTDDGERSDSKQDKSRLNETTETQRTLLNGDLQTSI
- Sequence (P49407 whole entry partner): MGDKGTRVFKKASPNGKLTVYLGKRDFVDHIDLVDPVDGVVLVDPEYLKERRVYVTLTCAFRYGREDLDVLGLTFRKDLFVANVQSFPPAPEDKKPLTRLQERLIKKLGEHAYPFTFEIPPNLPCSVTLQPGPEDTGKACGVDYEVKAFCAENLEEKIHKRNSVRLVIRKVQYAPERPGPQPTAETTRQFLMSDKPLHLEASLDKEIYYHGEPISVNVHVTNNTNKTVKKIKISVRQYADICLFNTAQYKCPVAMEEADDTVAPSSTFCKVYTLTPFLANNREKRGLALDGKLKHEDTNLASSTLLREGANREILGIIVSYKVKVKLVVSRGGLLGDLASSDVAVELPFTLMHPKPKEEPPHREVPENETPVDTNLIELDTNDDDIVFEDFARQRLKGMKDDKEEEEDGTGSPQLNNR
reportedMetric: EC50 (nM)
Express your answer in nM, writing the number without its unit.

### Prompt Need EC50 of N#Cc1cccc(-c2ccc3ncc(-c4cc(F)cc(F)c4)c(N4CCC(N)CC4)c3c2)c1O , thanks.
### Response 306

---

- subjectOfTest: SSTR3 (Homo sapiens, UniProt P32745)
- Construct: The human full-length SSTRs and mutants were cloned into the pcDNA3.1+ vector; expressed in transfected cells; host or cells: HEK293 (ATCC, CRL-1573)
- protocolNotes: SSTRs Gi-mediated cAMP inhibition, GloSensor, HEK293 (SSTR3 wild-type)
- Type: cell-based
- condition: best-fit; SSTR3 WT-2 (F296D set); read-out: EC50
reportedMetric: EC50 (nM)
Write the number in nM without appending the unit.

### Prompt # input molecule: N#Cc1cccc(-c2ccc3ncc(-c4cc(F)cc(F)c4)c(N4CCC(N)CC4)c3c2)c1O [paltusotine] ; wanted: its EC50
### Response 63.8

---

- Tested on: SSTR2 mutants
- protocolNotes: NanoBiT β-arrestin 1 recruitment assay, HEK293 (SSTR2 mutants)
- Format: cell-based, human
- condition: read-out: EC50 (β-arrestin1 recruitment); best-fit, K291A-1
reportedMetric: pEC50
Scale: negative log10 of molar concentration, which is what pEC50 denotes.

### Prompt Entry under review: N#Cc1cccc(-c2ccc3ncc(-c4cc(F)cc(F)c4)c(N4CCC(N)CC4)c3c2)c1O [paltusotine] . Reported pEC50?
### Response 7.10

---

- subjectOfTest: SSTR2 (Homo sapiens, UniProt P30874)
- protocolNotes: NanoBiT β-arrestin 1 recruitment assay, HEK293 (SSTR2 wild-type)
- Type: cell-based
- Parameters: Human full-length SSTR wild-type and mutant vectors were C-terminally fused; expressed in transfected cells; host or cells: HEK293
- condition: EC50 (best-fit), WT-1 (Q126A set)
reportedMetric: pEC50
Lab note — pEC50 values are minus log10 of concentrations in M.

### Prompt Look up pEC50: N#Cc1cccc(-c2ccc3ncc(-c4cc(F)cc(F)c4)c(N4CCC(N)CC4)c3c2)c1O [paltusotine]
### Response 6.51

---

- subjectOfTest: SSTR2 (Homo sapiens, UniProt P30874)
- protocolNotes: SSTRs Gi-mediated cAMP inhibition, GloSensor, HEK293, 5 μM forskolin, 15 min room temperature (SSTR2 wild-type)
- Assay type: cell-based
- condition: EC50, cAMP inhibition best-fit; I130A set; WT-1
- Sequence (P30874 whole entry): as the sequence (P30874 whole entry) above
reportedMetric: pEC50
Kindly note that pEC50 refers to -log10 of the concentration in mol/L and answer with the value alone.

### Prompt Provide value of pEC50 for this record tested with SSTR2 (Homo sapiens, UniProt P30874): N#Cc1cccc(-c2ccc3ncc(-c4cc(F)cc(F)c4)c(N4CCC(N)CC4)c3c2)c1O [paltusotine]
### Response 9.53

Just for reference, paper PMC9944328 is where these values come from.
